Measured surface expression, % positive events by CT45-IP-HLA-A2*02 dextramer staining of individual entries
target: CT45-IP-HLA-A*02 dextramer (human); experiment: flow cytometry, dextramer staining of TCR-mRNA electroporated T cells, gated on CD3+
Please reply with the bare figure in % and do not write the unit itself.

Examples with their reported surface expression, % positive events by CT45-IP-HLA-A2*02 dextramer staining follow.
- TCR-12 (TCR, V domains shown) Valpha: QLLEQSPQFLSIQEGENLTVYCNSSSVFSSLQWYRQEPGEGPVLLVTVVTGGEVKKLKRLTFQFGDARKDSSLHITAAQPGDTGLYLCAGGLSDSYDKVIFGPGTSLSVIP Vbeta: EVTQTPKHLVMGMTNKKSLKCEQHMGHRAMYWYKQKAKKPPELMFVYSYEKLSINESVPSRFSPECPNSSLLNLHLHALQPEDSALYLCASSQGVGQEYGYTFGSGTRLTVV: 20.1
- TCR-13 (TCR, V domains shown) Valpha: QKITQTQPGMFVQEKEAVTLDCTYDTSDQSYGLFWYKQPSSGEMIFLIYQGSYDEQNATEGRYSLNFQKARKSANLVISASQLGDSAMYFCAMSDPIMDTGRRALTFGSGTRLQVQP Vbeta: GITQSPKYLFRKEGQNVTLSCEQNLNHDAMYWYRQDPGQGLRLIYYSQIVNDFQKGDIAEGYSVSREKKESFPLTVTSAQKNPTAFYLCASKSRGPNLADTQYFGPGTRLTVL: 53.1
- TCR-7 (TCR, V domains shown) Valpha: QTVTQSQPEMSVQEAETVTLSCTYDTSESDYYLFWYKQPPSRQMILVIRQEAYKQQNATENRFSVNFQKAAKSFSLKISDSQLGDAAMYFCTFRYGGATNKLIFGTGTLLAVQP Vbeta: GVIQSPRHLIKEKRETATLKCYPIPRHDTVYWYQQGPGQDPQFLISFYEKMQSDKGSIPDRFSAQQFSDYHSELNMSSLELGDSALYFCASRGGWAETPDTQYFGPGTRLTVL: 53.3
- TCR-10 (TCR, V domains shown) Valpha: QNIDQPTEMTATEGAIVQINCTYQTSGFNGLFWYQQHAGEAPTFLSYNVLDGLEEKGRFSSFLSRSKGYSYLLLKELQMKDSASYLCAVPAPYTGTASKLTFGTGTRLQVTL Vbeta: GVTQTPKFQVLKTGQSMTLQCAQDMNHNSMYWYRQDPGMGLRLIYYSASEGTTDKGEVPNGYNVSRLNKREFSLRLESAAPSQTSVYFCASSEGYSTYNEQFFGPGTRLTVL: 52.8
- TCR-8 (TCR, V domains shown) Valpha: QKVTQAQTEISVVEKEDVTLDCVYETRDTTYYLFWYKQPPSGELVFLIRRNSFDEQNEISGRYSWNFQKSTSSFNFTITASQVVDSAVYFCALSGRGSGTYKYIFGTGTRLKVLA Vbeta: GVIQSPRHLIKEKRETATLKCYPIPRHDTVYWYQQGPGQDPQFLISFYEKMQSDKGSIPDRFSAQQFSDYHSELNMSSLELGDSALYFCASSAGTSYNEQFFGPGTRLTVL: 60.7
- TCR-14 (TCR, V domains shown) Valpha: QKITQTQPGMFVQEKEAVTLDCTYDTSDQSYGLFWYKQPSSGEMIFLIYQGSYDEQNATEGRYSLNFQKARKSANLVISASQLGDSAMYFCAINGLPGSARQLTFGSGTQLTVLP Vbeta: GVAQSPRYKIIEKRQSVAFWCNPISGHATLYWYQQILGQGPKLLIQFQNNGVVDDSQLPKDRFSAERLKGVDSTLKIQPAKLEDSAVYLCASSRFVATGTSPLHFGNGTRLTVT: 11.6
- TCR-6 (TCR, V domains shown) Valpha: QKEVEQDPGPLSVPEGAIVSLNCTYSNSAFQYFMWYRQYSRKGPELLMYTYSSGNKEDGRFTAQVDKSSKYISLFIRDSQPSDSATYLCAMSGNSGARDYGNNRLAFGKGNQVVVIP Vbeta: EVTQTPKHLVMGMTNKKSLKCEQHMGHRAMYWYKQKAKKPPELMFVYSYEKLSINESVPSRFSPECPNSSLLNLHLHALQPEDSALYLCASATWEEAGPYNEQFFGPGTRLTVL: 2.9

Note: attention shifts to another entry.
Could you share which surface expression, % positive events by CT45-IP-HLA-A2*02 dextramer staining value was measured for TCR-3 (TCR, V domains shown) Valpha: QKITQTQPGMFVQEKEAVTLDCTYDTSDQSYGLFWYKQPSSGEMIFLIYQGSYDEQNATEGRYSLNFQKARKSANLVISASQLGDSAMYFCGYSNYQLIWGAGTKLIIKP Vbeta: QVTQNPRYLITVTGKKLTVTCSQNMNHEYMSWYRQDPGLGLRQIYYSMNVEVTDKGDVPEGYKVSRKEKRNFPLILESPSPNQTSLYFCASREGTGGYQPQHFGDGTRLSIL ? 27.2
